system: LOX IMVI melanoma; test: NCI tumour cell line growth inhibition, 48 h
TGI by entry:

1) CC(C)(O)CC(=O)NCCn1ccc2ncnc(Nc3ccc(Oc4cccc(C(F)(F)F)c4)c(Cl)c3)c21: > 10 µM
2) NC(=O)c1c(NC(=O)c2ccc3c(c2)OCO3)sc2c1CCC(=O)C2: > 100 µM

Challenge: Give the measured TGI for C=C(CO[Si](C)(C)C(C)(C)C)C(C)=O
Response given: 24.7 µM

###

TGI by entry:
test system: NCI-H23 lung; assay: NCI tumour cell line growth inhibition, 48 h

Recorded results for 5 compounds are shown here.
1) CC#CC(=O)SCCNC(=O)CC: > 10 µM
2) CCOC(=O)c1cc2c(C(=O)c3ccc([N+](=O)[O-])cc3)c(C(C)=O)ccc2[nH]1: > 100 µM
3) C=C(C)C(O)C(O)c1c(OC)ccc2ccc(=O)oc12 (stereo unspecified): > 100 µM
4) COc1cc(C2C(Cl)C(=O)N2NC(=O)c2ccc(N)cc2)ccc1O (stereo unspecified): 44.8 µM
5) CCOC(=O)c1c(N2CCCC2)ncn(Cc2ccccc2)c1=S: > 100 µM

Moving on to another compound below.
Challenge: Give the measured TGI for COc1cc(C2c3cc4c(cc3OC(NNC(N)=O)C2C)OCO4)cc(OC)c1O (stereo unspecified)
Response given: > 100 µM
